The entries below are paired with their reported Solenopsis invicta Mortality (%) 24 h.
# Tested on: Solenopsis invicta
# protocolDetails: whole plant or invertebrate
# Assay type: in vivo
# conditionsUsed: 100 ppm; 24 h; water test tube poison-feeding

>  <compound>
CC(=O)C1(CC(F)(F)F)Nc2c([S+]([O-])C(F)(F)F)c(C#N)nn2-c2c(Cl)cc(C(F)(F)F)cc21 (stereo not drawn) [d-48]

>  <Solenopsis invicta Mortality (%) 24 h>
26

$$$$
>  <compound>
COC(=O)CC1(C(=O)C(F)(F)F)Nc2c([S+]([O-])C(F)(F)F)c(C#N)nn2-c2c(Cl)cc(C(F)(F)F)cc21 (stereo not drawn) [d-54]

>  <Solenopsis invicta Mortality (%) 24 h>
21

$$$$
>  <compound>
N#Cc1nn2c(c1[S+]([O-])C(F)(F)F)NC(CC(=O)C(F)(F)F)c1c(Cl)cncc1-2 (centres unmarked) [b-70]

>  <Solenopsis invicta Mortality (%) 24 h>
44

$$$$
>  <compound>
O=C(C1Nc2c([S+]([O-])C(F)(F)F)c(C(F)(F)F)nn2-c2cncc(Cl)c21)C(F)(F)F (centres unmarked) [b-94]

>  <Solenopsis invicta Mortality (%) 24 h>
20

$$$$
>  <compound>
N#Cc1nn2c(c1OC(F)(F)F)NC(C#N)c1c(Cl)cncc1-2 (centres unmarked) [b-118]

>  <Solenopsis invicta Mortality (%) 24 h>
14

$$$$
>  <compound>
COC(=O)CC1(C(=O)OC)Nc2c([S+]([O-])C(F)(F)F)c(C#N)nn2-c2c1ccc(Cl)c2C(F)(F)F (centres unmarked) [e-13]

>  <Solenopsis invicta Mortality (%) 24 h>
20

$$$$
>  <compound>
N#CCC1(Cl)Nc2c([S+]([O-])C(F)(F)F)c(C#N)nn2-c2c(Cl)cc(C(F)(F)F)cc21 (stereo not drawn) [d-60]

>  <Solenopsis invicta Mortality (%) 24 h>
24

$$$$
>  <compound>
CC[S+]([O-])c1c(C#N)nn2c1NC(CC(=O)OC)(C(=O)OC)c1cc(C(F)(F)F)cc(Cl)c1-2 (stereo not drawn) [d-14]

>  <Solenopsis invicta Mortality (%) 24 h>
24

$$$$
